Attribution: patent US8268813B2

target: human μ-opioid receptor (Homo sapiens, UniProt P35372); construct: expressed in transfected cells; host or cells: HEK-293 cells; membrane homogenates; assay: Radioligand binding assay, [3H]DAMGO, transfected HEK-293 cell membranes
Sequence (P35372 whole entry): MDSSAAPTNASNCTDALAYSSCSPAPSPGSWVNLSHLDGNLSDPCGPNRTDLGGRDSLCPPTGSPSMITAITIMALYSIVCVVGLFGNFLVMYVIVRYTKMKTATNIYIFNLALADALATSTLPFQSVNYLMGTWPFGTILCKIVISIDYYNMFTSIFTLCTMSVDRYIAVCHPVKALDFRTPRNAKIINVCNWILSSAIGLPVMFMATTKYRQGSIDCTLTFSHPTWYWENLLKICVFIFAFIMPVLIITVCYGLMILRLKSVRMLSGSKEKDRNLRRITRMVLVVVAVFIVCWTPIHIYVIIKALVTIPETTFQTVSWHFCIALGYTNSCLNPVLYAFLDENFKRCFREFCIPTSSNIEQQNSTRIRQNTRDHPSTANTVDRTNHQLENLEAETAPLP
For each record, write down the corresponding Ki.
Give just the number in µM; leave the unit off.

Requested field: Ki. Item: CC(C)N[C@H]1CCn2c(=O)[nH]c3cccc(c32)[C@@H]1O [6S,7S enantiomer, 6S,7S zilpaterol enantiomer]
7

Now the same for CC(C)N[C@@H]1CCn2c(=O)[nH]c3cccc(c32)[C@H]1O (single isomer, unassigned) [6R,7R enantiomer, 6R,7R zilpaterol enantiomer]
130

Now the same for CC(C)NC1CCn2c(=O)[nH]c3cccc(c32)C1O (racemic) [Racemic trans, reference compound]
13
